Provide the recorded log10 IC50 for the entries that follow.
- EXPERIMENT DESCRIPTION: Growth inhibition of MCSF expressing mouse M-NSF60 cells
In our notation, the value equals log10 of IC50 in nM.

Inquiry: Request the reported log10 IC50 associated with NC(=O)c1cnc2cc(-c3ccncc3)ccc2c1Nc1n[nH]c2ccccc12
Reply text: 2.90

Inquiry: Request the reported log10 IC50 associated with NC(=O)c1cnc2cc(-c3ccncc3)ccc2c1Nc1ccc(F)c(F)c1
Reply text: 3.40

Inquiry: Request the reported log10 IC50 associated with CCOc1ccc(Nc2c(C(N)=O)cnc3cc(-c4ccncc4)ccc23)cc1F
Reply text: 3.60

Inquiry: Request the reported log10 IC50 associated with N#Cc1cccc(-c2ccc3c(Nc4ccccc4)c(C(N)=O)cnc3c2)c1
Reply text: 3.90

Inquiry: Request the reported log10 IC50 associated with Cc1ccc(Nc2c(C(N)=O)cnc3cc(-c4ccc(S(C)(=O)=O)cc4)ccc23)cc1C
Reply text: 2.00

Inquiry: Request the reported log10 IC50 associated with NC(=O)c1cnc2cc(-c3ccccc3)ccc2c1Nc1ccccc1
Reply text: 4.00

Inquiry: Request the reported log10 IC50 associated with CS(=O)(=O)c1ccc(-c2ccc3c(Nc4ccc(F)c(F)c4)c(C(N)=O)cnc3c2)cc1
Reply text: 3.30

Inquiry: Request the reported log10 IC50 associated with CS(=O)(=O)Cc1ccc(-c2ccc3c(Nc4ccccc4)c(C(N)=O)cnc3c2)cc1
Reply text: 3.20

Inquiry: Request the reported log10 IC50 associated with CCS(=O)(=O)c1ccc(-c2ccc3c(Nc4ccccc4)c(C(N)=O)cnc3c2)cc1
Reply text: 2.90

Inquiry: Request the reported log10 IC50 associated with CS(=O)(=O)Nc1ccc(-c2ccc3c(Nc4ccccc4)c(C(N)=O)cnc3c2)cc1
Reply text: 3.30

Inquiry: Request the reported log10 IC50 associated with CS(=O)(=O)c1ccc(-c2ccc3c(Nc4ccc(F)cc4)c(C(N)=O)cnc3c2)cc1
Reply text: 2.60

Inquiry: Request the reported log10 IC50 associated with COc1ccc(Nc2c(C(N)=O)cnc3cc(-c4ccc(S(C)(=O)=O)cc4)ccc23)cc1Cl
Reply text: 2.00

Inquiry: Request the reported log10 IC50 associated with NC(=O)c1cnc2cc(-c3ccc(Br)cc3)ccc2c1Nc1ccccc1
Reply text: 4.70

Inquiry: Request the reported log10 IC50 associated with Cc1cc(Nc2c(C(N)=O)cnc3cc(-c4ccncc4)ccc23)ccc1Cl
Reply text: 3.30

Inquiry: Request the reported log10 IC50 associated with NC(=O)c1cnc2cc(-c3ccncc3)ccc2c1Nc1cccc2[nH]ncc12
Reply text: 3.11

Inquiry: Request the reported log10 IC50 associated with COc1ccc(Nc2c(C(N)=O)cnc3cc(-c4ccncc4)ccc23)cc1
Reply text: 2.90

Inquiry: Request the reported log10 IC50 associated with NC(=O)c1cnc2cc(-c3ccc(C(=O)N4CCOCC4)cc3)ccc2c1Nc1ccccc1
Reply text: 2.30

Inquiry: Request the reported log10 IC50 associated with NC(=O)c1cnc2cc(-c3ccc(C(F)(F)F)cc3)ccc2c1Nc1ccccc1
Reply text: 4.20

Inquiry: Request the reported log10 IC50 associated with Cc1ccc(Nc2c(C(N)=O)cnc3cc(-c4ccncc4)ccc23)cc1C
Reply text: 2.00

Inquiry: Request the reported log10 IC50 associated with NC(=O)c1cnc2cc(-c3ccncc3)ccc2c1Nc1ccc(F)cc1
Reply text: 2.90

Inquiry: Request the reported log10 IC50 associated with COc1ccc(Nc2c(C(N)=O)cnc3cc(-c4ccncc4)ccc23)cc1F
Reply text: 2.51

Inquiry: Request the reported log10 IC50 associated with NC(=O)c1cnc2cc(-c3ccc(C(=O)C4CC4)cc3)ccc2c1Nc1ccccc1
Reply text: 3.60

Inquiry: Request the reported log10 IC50 associated with NC(=O)c1cnc2cc(-c3ccc(C(=O)N4CCCCC4)cc3)ccc2c1Nc1ccccc1
Reply text: 2.60

Inquiry: Request the reported log10 IC50 associated with Cc1ccc(-c2ccc3c(Nc4ccccc4)c(C(N)=O)cnc3c2)cc1
Reply text: 4.51

Inquiry: Request the reported log10 IC50 associated with CS(=O)(=O)Cc1cccc(-c2ccc3c(Nc4ccccc4)c(C(N)=O)cnc3c2)c1
Reply text: 3.70

Inquiry: Request the reported log10 IC50 associated with NC(=O)c1cnc2cc(-c3ccc(N)cc3)ccc2c1Nc1ccccc1
Reply text: 3.20

Inquiry: Request the reported log10 IC50 associated with Cc1ccc(Nc2c(C(N)=O)cnc3cc(-c4ccc(S(C)(=O)=O)cc4)ccc23)cc1F
Reply text: 3.51

Inquiry: Request the reported log10 IC50 associated with CC(C)Oc1ccc(Nc2c(C(N)=O)cnc3cc(-c4ccncc4)ccc23)cc1F
Reply text: 3.90

Inquiry: Request the reported log10 IC50 associated with Cc1cc(Nc2c(C(N)=O)cnc3cc(-c4ccncc4)ccc23)ccc1F
Reply text: 3.00

Inquiry: Request the reported log10 IC50 associated with CC(C)Oc1ccc(Nc2c(C(N)=O)cnc3cc(-c4ccncc4)ccc23)cc1
Reply text: 4.60

Inquiry: Request the reported log10 IC50 associated with COc1ccc(Nc2c(C(N)=O)cnc3cc(-c4ccncc4)ccc23)cc1Cl
Reply text: 2.30

Inquiry: Request the reported log10 IC50 associated with COc1ccc(Nc2c(C(N)=O)cnc3cc(-c4ccc(S(C)(=O)=O)cc4)ccc23)cc1F
Reply text: 3.00

Inquiry: Request the reported log10 IC50 associated with NC(=O)c1cnc2cc(-c3ccc(F)cc3)ccc2c1Nc1ccccc1
Reply text: 4.40

Inquiry: Request the reported log10 IC50 associated with NC(=O)c1cnc2cc(-c3ccncc3)ccc2c1Nc1ccccc1
Reply text: 2.90

Inquiry: Request the reported log10 IC50 associated with N#Cc1ccc(-c2ccc3c(Nc4ccccc4)c(C(N)=O)cnc3c2)cc1
Reply text: 3.60

Inquiry: Request the reported log10 IC50 associated with CS(=O)(=O)c1ccc(-c2ccc3c(Nc4ccccc4)c(C(N)=O)cnc3c2)cc1
Reply text: 2.00

Inquiry: Request the reported log10 IC50 associated with CSc1ccc(Nc2c(C(N)=O)cnc3cc(-c4ccncc4)ccc23)cc1
Reply text: 4.00

Inquiry: Request the reported log10 IC50 associated with CN(C)c1ccc(-c2ccc3c(Nc4ccccc4)c(C(N)=O)cnc3c2)cc1
Reply text: 3.80

====

- EXPERIMENT DESCRIPTION: Growth inhibition of MCSF expressing mouse M-NSF60 cells
Provide the recorded pIC50 for the entries that follow.
Conceptually, pIC50 converts a concentration in mol/L into minus its log10.

Inquiry: Request the reported pIC50 associated with Cc1ccc(Nc2c(C(N)=O)cnc3cc(-c4ccncc4)ccc23)cc1F
Reply text: 5.30

Inquiry: Request the reported pIC50 associated with CN(C)c1ccc(Nc2c(C(N)=O)cnc3cc(-c4ccncc4)ccc23)cc1
Reply text: 5.20

Inquiry: Request the reported pIC50 associated with NC(=O)c1cnc2cc(-c3ccc(S(N)(=O)=O)cc3)ccc2c1Nc1ccccc1
Reply text: 5.49

Inquiry: Request the reported pIC50 associated with COc1ccc(-c2ccc3c(Nc4ccccc4)c(C(N)=O)cnc3c2)cc1
Reply text: 5.20

Inquiry: Request the reported pIC50 associated with CC(=O)Nc1ccc(-c2ccc3c(Nc4ccccc4)c(C(N)=O)cnc3c2)cc1
Reply text: 5.89

Inquiry: Request the reported pIC50 associated with Cc1ccc(Nc2c(C(N)=O)cnc3cc(-c4ccncc4)ccc23)cc1Cl
Reply text: 6.80

====

MEASURE: IC50 (nM)
Could you give me the number in nM? Just the number is fine.

Inquiry: Missing value: IC50, Macrophage colony-stimulating factor 1 receptor (Homo sapiens, UniProt P07333), entry NC(=O)c1cnc2cc(-c3ccncc3)ccc2c1Nc1cccc2[nH]ncc12 . Fill in?
Reply text: 160

Inquiry: Missing value: IC50, Macrophage colony-stimulating factor 1 receptor (Homo sapiens, UniProt P07333), entry COc1ccc(-c2ccc3c(Nc4ccccc4)c(C(N)=O)cnc3c2)cc1 . Fill in?
Reply text: 25

Inquiry: Missing value: IC50, Macrophage colony-stimulating factor 1 receptor (Homo sapiens, UniProt P07333), entry COc1ccc(Nc2c(C(N)=O)cnc3cc(-c4ccncc4)ccc23)cc1Cl . Fill in?
Reply text: 32

Inquiry: Missing value: IC50, Macrophage colony-stimulating factor 1 receptor (Homo sapiens, UniProt P07333), entry CS(=O)(=O)c1ccc(-c2ccc3c(Nc4ccc(F)cc4)c(C(N)=O)cnc3c2)cc1 . Fill in?
Reply text: 160

Inquiry: Missing value: IC50, Macrophage colony-stimulating factor 1 receptor (Homo sapiens, UniProt P07333), entry NC(=O)c1cnc2cc(-c3ccncc3)ccc2c1Nc1ccc(OC(F)(F)F)c(Cl)c1 . Fill in?
Reply text: 32

Inquiry: Missing value: IC50, Macrophage colony-stimulating factor 1 receptor (Homo sapiens, UniProt P07333), entry CN(C)c1ccc(Nc2c(C(N)=O)cnc3cc(-c4ccncc4)ccc23)cc1 . Fill in?
Reply text: 63

Inquiry: Missing value: IC50, Macrophage colony-stimulating factor 1 receptor (Homo sapiens, UniProt P07333), entry NC(=O)c1cnc2cc(-c3ccc(C(=O)N4CCCCC4)cc3)ccc2c1Nc1ccccc1 . Fill in?
Reply text: 16

Inquiry: Missing value: IC50, Macrophage colony-stimulating factor 1 receptor (Homo sapiens, UniProt P07333), entry Cc1ccc(Nc2c(C(N)=O)cnc3cc(-c4ccncc4)ccc23)cc1C . Fill in?
Reply text: 80

Inquiry: Missing value: IC50, Macrophage colony-stimulating factor 1 receptor (Homo sapiens, UniProt P07333), entry NC(=O)c1cnc2cc(-c3ccc(F)cc3)ccc2c1Nc1ccccc1 . Fill in?
Reply text: 32

Inquiry: Missing value: IC50, Macrophage colony-stimulating factor 1 receptor (Homo sapiens, UniProt P07333), entry NC(=O)c1cnc2cc(-c3ccc(C(=O)N4CCOCC4)cc3)ccc2c1Nc1ccccc1 . Fill in?
Reply text: 80

Inquiry: Missing value: IC50, Macrophage colony-stimulating factor 1 receptor (Homo sapiens, UniProt P07333), entry NC(=O)c1cnc2cc(-c3ccncc3)ccc2c1Nc1n[nH]c2ccccc12 . Fill in?
Reply text: 320

Inquiry: Missing value: IC50, Macrophage colony-stimulating factor 1 receptor (Homo sapiens, UniProt P07333), entry NC(=O)c1cnc2cc(-c3ccncc3)ccc2c1Nc1ccon1 . Fill in?
Reply text: 3200

Inquiry: Missing value: IC50, Macrophage colony-stimulating factor 1 receptor (Homo sapiens, UniProt P07333), entry NC(=O)c1cnc2cc(-c3ccncc3)ccc2c1Nc1ccc(F)cc1 . Fill in?
Reply text: 100

Inquiry: Missing value: IC50, Macrophage colony-stimulating factor 1 receptor (Homo sapiens, UniProt P07333), entry CS(=O)(=O)Cc1ccc(-c2ccc3c(Nc4ccccc4)c(C(N)=O)cnc3c2)cc1 . Fill in?
Reply text: 50

Inquiry: Missing value: IC50, Macrophage colony-stimulating factor 1 receptor (Homo sapiens, UniProt P07333), entry NC(=O)c1cnc2cc(-c3ccc(Br)cc3)ccc2c1Nc1ccccc1 . Fill in?
Reply text: 16

Inquiry: Missing value: IC50, Macrophage colony-stimulating factor 1 receptor (Homo sapiens, UniProt P07333), entry NC(=O)c1cnc2cc(-c3ccc(C(=O)C4CCCC4)cc3)ccc2c1Nc1ccccc1 . Fill in?
Reply text: 32

Inquiry: Missing value: IC50, Macrophage colony-stimulating factor 1 receptor (Homo sapiens, UniProt P07333), entry N#Cc1cccc(-c2ccc3c(Nc4ccccc4)c(C(N)=O)cnc3c2)c1 . Fill in?
Reply text: 320

Inquiry: Missing value: IC50, Macrophage colony-stimulating factor 1 receptor (Homo sapiens, UniProt P07333), entry NC(=O)c1cnc2cc(-c3ccc(C(=O)C4CC4)cc3)ccc2c1Nc1ccccc1 . Fill in?
Reply text: 100

Inquiry: Missing value: IC50, Macrophage colony-stimulating factor 1 receptor (Homo sapiens, UniProt P07333), entry Cc1ccc(Nc2c(C(N)=O)cnc3cc(-c4ccc(S(C)(=O)=O)cc4)ccc23)cc1C . Fill in?
Reply text: 8

Inquiry: Missing value: IC50, Macrophage colony-stimulating factor 1 receptor (Homo sapiens, UniProt P07333), entry Cc1ccc(Nc2c(C(N)=O)cnc3cc(-c4ccncc4)ccc23)cc1Cl . Fill in?
Reply text: 40

Inquiry: Missing value: IC50, Macrophage colony-stimulating factor 1 receptor (Homo sapiens, UniProt P07333), entry CN(C)c1ccc(-c2ccc3c(Nc4ccccc4)c(C(N)=O)cnc3c2)cc1 . Fill in?
Reply text: 40

Inquiry: Missing value: IC50, Macrophage colony-stimulating factor 1 receptor (Homo sapiens, UniProt P07333), entry NC(=O)c1cnc2cc(-c3ccc(S(N)(=O)=O)cc3)ccc2c1Nc1ccccc1 . Fill in?
Reply text: 80

Inquiry: Missing value: IC50, Macrophage colony-stimulating factor 1 receptor (Homo sapiens, UniProt P07333), entry CCS(=O)(=O)c1ccc(-c2ccc3c(Nc4ccccc4)c(C(N)=O)cnc3c2)cc1 . Fill in?
Reply text: 200

Inquiry: Missing value: IC50, Macrophage colony-stimulating factor 1 receptor (Homo sapiens, UniProt P07333), entry NC(=O)c1cnc2cc(-c3ccncc3)ccc2c1Nc1ccc(F)c(F)c1 . Fill in?
Reply text: 32

Inquiry: Missing value: IC50, Macrophage colony-stimulating factor 1 receptor (Homo sapiens, UniProt P07333), entry COc1ccc(Nc2c(C(N)=O)cnc3cc(-c4ccc(S(C)(=O)=O)cc4)ccc23)cc1F . Fill in?
Reply text: 100

Inquiry: Missing value: IC50, Macrophage colony-stimulating factor 1 receptor (Homo sapiens, UniProt P07333), entry CS(=O)(=O)c1ccc(-c2ccc3c(Nc4ccccc4)c(C(N)=O)cnc3c2)cc1 . Fill in?
Reply text: 16
